Would you kindly list IC50 for each of these compounds?
- experimental target: human DPP1 enzyme (Homo sapiens (Human), UniProt P53634)
- Sequence (P53634 231-394): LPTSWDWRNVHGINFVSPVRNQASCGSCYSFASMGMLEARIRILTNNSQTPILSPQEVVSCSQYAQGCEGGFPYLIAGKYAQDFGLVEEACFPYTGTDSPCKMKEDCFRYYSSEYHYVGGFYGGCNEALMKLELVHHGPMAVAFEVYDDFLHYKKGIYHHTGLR
- Sequence (P53634 25-134): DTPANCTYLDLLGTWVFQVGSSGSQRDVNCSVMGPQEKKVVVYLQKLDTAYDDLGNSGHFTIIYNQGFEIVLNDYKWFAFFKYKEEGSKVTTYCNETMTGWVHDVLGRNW
- Sequence (P53634 395-463): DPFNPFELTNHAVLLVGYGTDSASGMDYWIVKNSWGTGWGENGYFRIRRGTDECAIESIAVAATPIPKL
- assay protocol: Activity on human recombinant DPP1 isolated enzyme assay (H-Gly-Arg-AMC cleavage, fluorescence)
- Type: biochemical
- experimental parameters: 0.35 nM human DPP1, 300 μM H-Gly-Arg-AMC, 30 min pre-incubation at 25° C., pH 5.0; read-out: h DPP1 pIC50 (converted)
- Protocol: Human DPP1 enzyme activity was determined by measuring release of the fluorophore aminomethyl coumarin (AMC) following enzymatic cleavage of the dipeptide substrate H-Gly-Arg-AMC. […] Enzyme activity was determined by measuring fluorescence of the AMC product at excitation and emission wavelengths of 380 nm and 460 nm using a BMG LABTECH PHERA star plate reader. […]

Incoming: May I ask what IC50 has been recorded for CC1(C)NCC1C(=O)N[C@H](C#N)Cc1ccc(-c2ccc(C#N)cc2)cc1 (stereo partly drawn) ?
Outgoing: 1000 to 10000 nM

Incoming: Repeat for the following compound: CN1CC(C(=O)N[C@H](C#N)Cc2ccc(-c3ccc(C#N)cc3)cc2)(C(F)F)C1
Outgoing: 100 to 1000 nM

Incoming: Field entry: CN1CC(O)(C(=O)N[C@H](C#N)Cc2ccc(-c3ccc(C#N)cc3)cc2)C1
Outgoing: 10 to 100 nM

Incoming: Item: CC1NCC1C(=O)N[C@H](C#N)Cc1ccc(-c2ccc(C#N)cc2)cc1 (stereo partly drawn)
Outgoing: 1000 to 10000 nM

Incoming: Next compound up: COC1(C(=O)NC(C#N)Cc2ncc(-c3ccc(C#N)cc3)cc2F)CN(C)C1 (single isomer, unassigned; enantiomer 1) [Example 44]
Outgoing: 10 to 100 nM

Incoming: Now the same for CCC1(C(=O)N[C@H](C#N)Cc2ccc(-c3ccc(C#N)cc3)cc2)CNC1
Outgoing: 100 to 1000 nM

* * *

- experimental target: human DPP1 enzyme (Homo sapiens (Human))
- assay protocol: Activity on human recombinant DPP1 isolated enzyme assay (H-Gly-Arg-AMC cleavage, fluorescence)
- Assay type: biochemical
- experimental parameters: 0.35 nM human DPP1, 300 μM H-Gly-Arg-AMC, 30 min pre-incubation at 25° C., pH 5.0; read-out: h DPP1 pIC50 (converted)
Please respond with reported IC50 for every item in the list.

Incoming: // query IC50 value for entry COC1(C(=O)N[C@H](C#N)Cc2ccc(-c3ccc(C#N)cc3)cc2)CN(CC(C)C)C1
Outgoing: 1 to 10 µM

Incoming: Next entry: COC1(C(=O)NC(C#N)Cc2ncc(-c3ccc(C#N)cc3)cc2F)CN(C)C1 (single isomer, unassigned; enantiomer 2) [Example 45]
Outgoing: 1 to 10 µM

Incoming: Try the molecule N#Cc1ccc(-c2ccc(C[C@@H](C#N)NC(=O)C3(F)CNC3)cc2)cc1
Outgoing: 0.1 to 1 µM

Incoming: Now try COC1(C(=O)NC(C#N)Cc2ncc(-c3ccc(C#N)cc3)cc2F)CN(C)C1 (racemic) [Example 43] .
Outgoing: 0.01 to 0.1 µM
